Target: human 20S proteasome PGPH-L activity
Conditions: read-out: IC50 PGPH-L; 2 nM 20S, 30 min at 37°C, 100 µM substrate
REPORTED_ENDPOINT: IC50 (nM)
Respond numerically; units are nM and should not be typed.

# input Supply IC50 value. Item: C[n+]1ccc(-c2c3nc(c(-c4cc[n+](C)cc4)c4ccc([nH]4)c(-c4cc[n+](C)cc4)c4nc(c(-c5cc[n+](C)cc5)c5ccc2[nH]5)C=C4)C=C3)cc1 [compound 1]
# output 140

* * *

Biological target: human 20S proteasome ChT-L activity
Settings: read-out: IC50 ChT-L; 2 nM 20S, 30 min at 37°C, 100 µM substrate
REPORTED_ENDPOINT: pIC50
Friendly reminder that pIC50 comes from taking -log10 of the concentration in mol/L.

# input Provide pIC50 value for the following compound: `C[n+]1ccc(-c2c3nc(c(-c4cc[n+](C)cc4)c4ccc([nH]4)c(-c4cc[n+](C)cc4)c4nc(c(-c5cc[n+](C)cc5)c5ccc2[nH]5)C=C4)C=C3)cc1`
# output 6.41
